target: dhPPase (Desulfitobacterium hafniense CBS-PPase) (Desulfitobacterium hafniense, UniProt B8FP42, G118M); construct: full-length, tag-less, recombinant in E. coli BL21 (pET-42b); homotetramer; assay: isothermal titration calorimetry, single-binding-site model; conditions: read-out: KN
Sequence (B8FP42 entry or part of it G118M): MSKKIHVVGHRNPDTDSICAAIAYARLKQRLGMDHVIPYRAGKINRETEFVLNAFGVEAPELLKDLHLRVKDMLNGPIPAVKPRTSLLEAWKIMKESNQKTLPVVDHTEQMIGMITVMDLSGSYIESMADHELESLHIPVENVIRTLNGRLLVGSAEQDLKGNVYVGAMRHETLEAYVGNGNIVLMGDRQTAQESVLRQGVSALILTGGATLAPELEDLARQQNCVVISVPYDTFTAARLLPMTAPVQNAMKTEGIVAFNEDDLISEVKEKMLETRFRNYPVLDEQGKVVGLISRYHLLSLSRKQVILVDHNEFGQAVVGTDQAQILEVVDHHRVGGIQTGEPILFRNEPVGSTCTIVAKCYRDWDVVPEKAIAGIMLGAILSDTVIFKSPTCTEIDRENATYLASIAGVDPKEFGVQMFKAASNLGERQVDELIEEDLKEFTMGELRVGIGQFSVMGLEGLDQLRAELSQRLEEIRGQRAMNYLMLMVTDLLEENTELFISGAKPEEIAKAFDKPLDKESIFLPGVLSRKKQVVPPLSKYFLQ
observed_property: Kd (nM)
Use nM as the unit, but write only the number.

Incoming: Dear colleague, I am looking for the recorded Kd of the following compound: Nc1ncnc2c1ncn2[C@@H]1O[C@H](COP(=O)(O)O)[C@@H](O)[C@H]1O
Outgoing: 520

====

target: dhPPase (Desulfitobacterium hafniense CBS-PPase) (Desulfitobacterium hafniense, UniProt B8FP42, K95A); construct: full-length, tag-less, recombinant in E. coli BL21 (pET-42b); homotetramer; assay: isothermal titration calorimetry, single-binding-site model; conditions: read-out: KN
Sequence (B8FP42 entry or part of it K95A): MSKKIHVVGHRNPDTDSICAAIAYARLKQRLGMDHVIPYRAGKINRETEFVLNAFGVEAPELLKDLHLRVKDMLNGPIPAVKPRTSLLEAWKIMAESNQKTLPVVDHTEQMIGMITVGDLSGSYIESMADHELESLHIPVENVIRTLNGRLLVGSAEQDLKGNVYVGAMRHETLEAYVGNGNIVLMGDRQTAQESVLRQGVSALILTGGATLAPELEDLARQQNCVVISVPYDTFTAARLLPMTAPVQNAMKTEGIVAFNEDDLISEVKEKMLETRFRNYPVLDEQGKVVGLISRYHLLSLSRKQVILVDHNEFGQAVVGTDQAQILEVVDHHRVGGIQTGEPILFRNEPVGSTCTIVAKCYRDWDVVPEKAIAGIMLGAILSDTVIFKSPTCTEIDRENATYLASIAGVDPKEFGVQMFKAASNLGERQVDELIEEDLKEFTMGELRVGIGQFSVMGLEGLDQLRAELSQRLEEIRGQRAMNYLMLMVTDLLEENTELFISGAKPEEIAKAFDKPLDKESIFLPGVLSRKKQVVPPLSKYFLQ
observed_property: Kd (µM)
Number only, in µM; omit the unit.

Incoming: Value lookup for Kd; key = Nc1ncnc2c1ncn2[C@@H]1O[C@H](COP(=O)(O)O)[C@@H](O)[C@H]1O
Outgoing: 4.6
